solubility at 10 min values, listed per item
- EXPERIMENTAL DETAILS: physchem
- MEASUREMENT PARAMETERS: aqueous buffer, thermodynamic from solid
MEASURED PARAMETER: solubility at 10 min

MOLECULE: N[C@@H]1[C@H]2CN(c3nc4c(cc3F)c(=O)c(C(=O)O)cn4-c3ccc(F)cc3F)C[C@@H]12
MEASURED PARAMETER: solubility at 10 min
RESULT: > 10000 µg/mL
//
MOLECULE: COc1c(N2CCNC(C)C2)c(F)cc2c(=O)c(C(=O)O)cn(C3CC3)c12 (stereo not drawn)
MEASURED PARAMETER: solubility at 10 min
RESULT: > 10000 µg/mL
//
MOLECULE: COc1c(N2C[C@@H]3CCCN[C@@H]3C2)c(F)cc2c(=O)c(C(=O)O)cn(C3CC3)c12
MEASURED PARAMETER: solubility at 10 min
RESULT: > 10000 µg/mL
//
MOLECULE: CO/N=C1\CN(c2nc3c(cc2F)c(=O)c(C(=O)O)cn3C2CC2)CC1CN (stereo not drawn)
MEASURED PARAMETER: solubility at 10 min
RESULT: > 10000 µg/mL
//
MOLECULE: CCn1cc(C(=O)O)c(=O)c2cc(F)c(N3CCNC(C)C3)c(F)c21 (stereo not drawn)
MEASURED PARAMETER: solubility at 10 min
RESULT: > 10000 µg/mL
//
MOLECULE: C[C@@H]1CN(c2c(F)c(F)c3c(=O)c(C(=O)O)cn(C4CC4)c3c2F)C[C@H](C)N1
MEASURED PARAMETER: solubility at 10 min
RESULT: > 10000 µg/mL

###

- EXPERIMENTAL DETAILS: Rat pharmacokinetic model (IV vs microspray aerosol, intratracheal)
- Format: in vivo, rats
- MEASUREMENT PARAMETERS: rat, serum, inhaled or intranasal; IT, 10 mg/kg; read-out: Serum t1/2 (converted)
half-life values, listed per item
MEASURED PARAMETER: half-life

COMPOUND: NC1CCN(c2c(F)cc3c(=O)c(C(=O)O)cn(C4CC4)c3c2Cl)C1 (centres unmarked) [Clinafloxacin]
RESULT: 44.4 min

COMPOUND: NC[C@H]1O[C@H](O[C@H]2[C@H](O)[C@@H](O[C@H]3O[C@H](CO)[C@@H](O)[C@H](N)[C@H]3O)[C@H](N)C[C@@H]2N)[C@H](N)C[C@@H]1O [Tobramycin]
RESULT: 60 min

###

- EXPERIMENTAL DETAILS: physchem
- MEASUREMENT PARAMETERS: pKa
MEASURED PARAMETER: pKa

SMILES: C[C@H]1COc2c(N3CCN(C)CC3)c(F)cc3c(=O)c(C(=O)O)cn1c23
NUMERIC RESULT: 6.3

###

- EXPERIMENTAL DETAILS: physchem
- MEASUREMENT PARAMETERS: acidic pKa

SMILES: C[C@H]1COc2c(N3CCN(C)CC3)c(F)cc3c(=O)c(C(=O)O)cn1c23
pKa: < 2

###

- EXPERIMENTAL DETAILS: Rat pharmacokinetic model (IV vs microspray aerosol, intratracheal)
- Format: in vivo, rats
- MEASUREMENT PARAMETERS: rat, serum, inhaled or intranasal; IT, 10 mg/kg
- Description: […] Blood samples are taken at various times over 3 hours to determine the plasma pharmacokinetic parameters. […] The plasma and tissue concentrations are determined by an HPLC method and the data are then fit using WinNonlin.

MOLECULE: NC[C@H]1O[C@H](O[C@H]2[C@H](O)[C@@H](O[C@H]3O[C@H](CO)[C@@H](O)[C@H](N)[C@H]3O)[C@H](N)C[C@@H]2N)[C@H](N)C[C@@H]1O [Tobramycin]
OUTPUT UNIT: ng·h/mL
AUC(0-inf): 13800
--
MOLECULE: NC1CCN(c2c(F)cc3c(=O)c(C(=O)O)cn(C4CC4)c3c2Cl)C1 (stereo not drawn) [Clinafloxacin]
OUTPUT UNIT: ng·h/mL
AUC(0-inf): 3200
--
MOLECULE: C[C@H]1COc2c(N3CCN(C)CC3)c(F)cc3c(=O)c(C(=O)O)cn1c23 [Levofloxacin, levofloxacin]
OUTPUT UNIT: ng·h/mL
AUC(0-inf): 3280
